Molecular target: BRAF V600E (Homo sapiens, UniProt P15056, V600E)
Construct: expressed in transfected cells
Sequence (P15056 whole entry V600E): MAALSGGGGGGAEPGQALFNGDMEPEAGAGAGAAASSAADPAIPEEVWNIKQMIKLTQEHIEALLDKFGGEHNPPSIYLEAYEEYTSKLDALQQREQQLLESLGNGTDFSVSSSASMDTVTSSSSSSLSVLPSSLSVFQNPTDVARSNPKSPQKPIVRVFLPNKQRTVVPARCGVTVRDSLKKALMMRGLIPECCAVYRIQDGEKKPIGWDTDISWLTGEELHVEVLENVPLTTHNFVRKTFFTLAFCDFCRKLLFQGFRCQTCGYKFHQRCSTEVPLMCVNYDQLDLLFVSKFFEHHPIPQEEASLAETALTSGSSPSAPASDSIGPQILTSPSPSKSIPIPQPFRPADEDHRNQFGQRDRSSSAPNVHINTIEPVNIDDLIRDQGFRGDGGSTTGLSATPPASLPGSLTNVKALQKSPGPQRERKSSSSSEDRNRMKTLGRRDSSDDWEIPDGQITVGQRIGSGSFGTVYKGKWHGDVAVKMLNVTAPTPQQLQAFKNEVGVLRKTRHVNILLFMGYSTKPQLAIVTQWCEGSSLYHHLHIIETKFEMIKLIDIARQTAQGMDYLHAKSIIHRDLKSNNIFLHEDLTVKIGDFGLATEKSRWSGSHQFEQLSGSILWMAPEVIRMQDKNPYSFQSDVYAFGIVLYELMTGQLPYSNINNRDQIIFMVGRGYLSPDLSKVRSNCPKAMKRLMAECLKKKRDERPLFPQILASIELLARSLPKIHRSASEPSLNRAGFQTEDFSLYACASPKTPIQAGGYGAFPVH
Experiment: Cellular assay of target protein degradation, T-Rex 293 cells stably transfected with HA-BRAF_V600E (HA immunofluorescence, high content imaging)
Assay type: cell-based
Conditions: half maximal degradation, T-Rex 293 HA-BRAF V600E; read-out: BRaf V600E DC50
Measured DC50 values are reported for all entries that follow.
measured.parameter: DC50

1) COc1cc(N2CC3(CN(CC4CCN(c5ccc(-c6cnc7[nH]cc(C(=O)c8c(F)ccc(NS(=O)(=O)N9CC[C@@H](F)C9)c8F)c7c6)cc5F)CC4)C3)C2)cc2c1C(=O)N(C1CCC(=O)NC1=O)C2 (stereo partly drawn) [Compound 132] :: 5 to 50 nM
2) O=C1CC[C@H](N2Cc3cc(C[C@H](O)CN4CCN(c5ccc(-c6cnc7[nH]cc(C(=O)c8c(F)ccc(NS(=O)(=O)N9CC[C@@H](F)C9)c8F)c7c6)cc5)CC4)ccc3C2=O)C(=O)N1 [Compound 74] :: 5 to 50 nM
3) COc1cc([C@H](O)CCN2CCN(c3ccc(-c4cnc5[nH]cc(C(=O)c6c(F)ccc(NS(=O)(=O)N7CC[C@@H](F)C7)c6F)c5c4)cc3)CC2)cc2c1C(=O)N([C@@H]1CCC(=O)NC1=O)C2 [Compound 187] :: 50 to 500 nM
4) O=C1CCC(N2Cc3cc(N4CCC(CN5CCN(C6(c7ccc(-c8cnc9[nH]cc(C(=O)c%10c(F)ccc(NS(=O)(=O)N%11CC[C@@H](F)C%11)c%10F)c9c8)cc7)CC6)CC5)CC4)ccc3C2=O)C(=O)N1 (stereo partly drawn) [Compound 162] :: 50 to 500 nM
5) O=C1CCC(N2Cc3cc(CCCN4CC5(C4)CN(c4ccc(-c6cnc7[nH]cc(C(=O)c8c(F)ccc(NS(=O)(=O)N9CCC(F)(F)C9)c8F)c7c6)cc4)C5)ccc3C2=O)C(=O)N1 (stereo not drawn) [Compound 248] :: 5 to 50 nM
6) COc1cc(N2CCC(CN3CCN(c4ccc(-c5cnc6[nH]cc(C(=O)c7c(F)ccc(NS(=O)(=O)N8CC[C@@H](F)C8)c7F)c6c5)cc4)CC3)CC2)ccc1C(=O)NC1CCC(=O)NC1=O (stereo partly drawn) [Compound 358] :: 5 to 50 nM
7) O=C1CC[C@H](N2Cc3cc(CN4C[C@@H]5CN(c6ccc(-c7cnc8[nH]cc(C(=O)c9c(F)ccc(NS(=O)(=O)N%10CC[C@@H](F)C%10)c9F)c8c7)cc6)C[C@@H]5C4)ccc3C2=O)C(=O)N1 [Compound 76] :: 5 to 50 nM
8) COc1cc(N2CCC(CN3CC4(C3)CN(c3ccc(-c5cnc6[nH]cc(C(=O)c7c(F)ccc(NS(=O)(=O)N8CC[C@@H](F)C8)c7F)c6c5)cc3)C4)CC2)ccc1C(=O)N[C@H]1CCC(=O)NC1=O [Compound 352] :: 5 to 50 nM
9) COc1cc(N2CCC(CN3CC4(C3)CN(c3ccc(-c5cnc6[nH]cc(C(=O)c7c(F)ccc(NS(=O)(=O)N8CC[C@@H](F)C8)c7F)c6c5)cc3)C4)CC2)cc2c1C(=O)N([C@H]1CCC(=O)NC1=O)C2 [Compound 226] :: 5 to 50 nM
